System: taste bud P4(B) subfractions
Test: Specific binding: competition of 14C sugars or SSS with unlabeled homologous and heterologous sugars, Scatchard analysis
Design: species or system bovine
Settings: taste bud P4(B), FIG. 7
MEASURED_PROPERTY: specific binding (competition of 14C sugar or SSS with homologous unlabeled sugar or SSS)

# MOLECULE, EXPERIMENTAL_VALUE
records = [
    ("O=C(CO)[C@@H](O)[C@H](O)[C@H](O)CO", "occurred"),
    ("O=C1NS(=O)(=O)c2ccccc21", "occurred"),
    ("OC[C@H]1OC(O)[C@H](O)[C@@H](O)[C@@H]1O (some centres unmarked)", "occurred"),
    ("OC[C@H]1O[C@@](CO)(O[C@H]2O[C@H](CO)[C@@H](O)[C@H](O)[C@H]2O)[C@@H](O)[C@@H]1O", "occurred"),
    ("O=S(=O)(O)NC1CCCCC1 [CYCLAMATE, cyclamate]", "occurred"),
]

// data source = patent US4146501A
